experiment summary: Octanol-water distribution coefficient, log D of the compound by carrier-mediated distribution system
Format: physicochemical
measured attribute: logD
Kindly provide the number alone.

N#Cc1ccc2c(c1)CN(c1cccnc1)C2=O 1.35
O=C1c2ccc(Cl)cc2CN1c1cccnc1 2.52
O=C1c2ccc(Cl)cc2CCN1c1cccnc1 2.25

Request: Data request, read-out logD, for `CCC(=O)N[C@@H]1CCCc2c1cncc2N1Cc2cc(Cl)ccc2C1=O`
Result: 2.14

###

experiment summary: Intrinsic clearance in rat hepatocytes
Assay type: ADME, cell-based, Hepatocyte
conditions: read-out: CLH
measured attribute: CLint scaled (mL/min/kg)
Respond numerically; units are mL/min/kg and should not be typed.

Request: Data request, read-out CLint scaled, for `CCS(=O)(=O)N1CC(Oc2cncc(N3C(=O)c4ccc(Cl)cc4C3(C)C)c2)C1`
Result: 26.7
